Entry source: patent US7611848B2

- system-tested: wild-type mGlu5 receptor (Rattus norvegicus, UniProt P31424)
- Sequence (P31424 21-1171 isoform P31424-2 limits assumed): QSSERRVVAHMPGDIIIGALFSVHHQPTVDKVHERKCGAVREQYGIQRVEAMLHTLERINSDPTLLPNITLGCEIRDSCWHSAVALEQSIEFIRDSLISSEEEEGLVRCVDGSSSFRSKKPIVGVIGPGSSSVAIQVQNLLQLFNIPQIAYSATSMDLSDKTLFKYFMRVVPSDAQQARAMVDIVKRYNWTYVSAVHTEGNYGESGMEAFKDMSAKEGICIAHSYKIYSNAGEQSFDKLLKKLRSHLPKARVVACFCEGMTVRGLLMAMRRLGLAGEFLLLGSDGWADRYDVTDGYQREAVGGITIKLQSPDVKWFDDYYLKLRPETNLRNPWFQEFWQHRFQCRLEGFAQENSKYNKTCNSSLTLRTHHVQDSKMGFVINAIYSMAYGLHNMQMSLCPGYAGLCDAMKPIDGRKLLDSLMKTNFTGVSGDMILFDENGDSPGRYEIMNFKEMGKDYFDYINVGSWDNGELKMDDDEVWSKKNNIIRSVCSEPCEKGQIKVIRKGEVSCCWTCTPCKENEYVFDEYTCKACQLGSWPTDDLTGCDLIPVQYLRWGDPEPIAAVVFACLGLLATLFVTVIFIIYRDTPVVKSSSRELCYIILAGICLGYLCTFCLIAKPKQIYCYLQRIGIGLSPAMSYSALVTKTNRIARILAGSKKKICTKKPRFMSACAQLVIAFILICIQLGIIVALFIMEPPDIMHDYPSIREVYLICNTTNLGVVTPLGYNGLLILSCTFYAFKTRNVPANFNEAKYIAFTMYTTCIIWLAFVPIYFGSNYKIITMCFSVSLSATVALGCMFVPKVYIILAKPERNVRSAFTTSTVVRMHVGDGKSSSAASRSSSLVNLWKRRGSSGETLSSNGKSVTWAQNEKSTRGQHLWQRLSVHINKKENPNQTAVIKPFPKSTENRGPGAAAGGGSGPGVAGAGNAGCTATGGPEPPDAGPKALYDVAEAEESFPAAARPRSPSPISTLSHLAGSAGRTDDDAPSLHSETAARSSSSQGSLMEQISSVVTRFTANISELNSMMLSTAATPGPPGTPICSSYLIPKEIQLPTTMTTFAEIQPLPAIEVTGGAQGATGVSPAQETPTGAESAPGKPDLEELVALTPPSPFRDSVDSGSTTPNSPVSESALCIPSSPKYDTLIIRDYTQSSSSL
- assay-comment: IP production in HEK293 cells transiently expressing wild-type mGlu5 receptor
- setup-conditions: in the presence of a low concentration of agonist; read-out: EC50 for dose-dependent increase of IP production
quantity-name: pEC50
Keep in mind that pEC50 stands for -log10 of concentration in molar terms.

Value (pEC50, wild-type mGlu5 receptor (Rattus norvegicus, UniProt P31424)) for record Fc1cccc(/C=N/N=C/c2cccc(F)c2)c1 [DFB] = 5.74
